src = patent US20210403601A1

biological target: T1, Taq DNA polymerase (Thermus aquaticus, UniProt P19821 1-832); assay: AMC sensor, antibody immobilised
T1 construct: also called Taq enzyme; Taq DNA enzyme
T1 sequence (P19821 whole entry): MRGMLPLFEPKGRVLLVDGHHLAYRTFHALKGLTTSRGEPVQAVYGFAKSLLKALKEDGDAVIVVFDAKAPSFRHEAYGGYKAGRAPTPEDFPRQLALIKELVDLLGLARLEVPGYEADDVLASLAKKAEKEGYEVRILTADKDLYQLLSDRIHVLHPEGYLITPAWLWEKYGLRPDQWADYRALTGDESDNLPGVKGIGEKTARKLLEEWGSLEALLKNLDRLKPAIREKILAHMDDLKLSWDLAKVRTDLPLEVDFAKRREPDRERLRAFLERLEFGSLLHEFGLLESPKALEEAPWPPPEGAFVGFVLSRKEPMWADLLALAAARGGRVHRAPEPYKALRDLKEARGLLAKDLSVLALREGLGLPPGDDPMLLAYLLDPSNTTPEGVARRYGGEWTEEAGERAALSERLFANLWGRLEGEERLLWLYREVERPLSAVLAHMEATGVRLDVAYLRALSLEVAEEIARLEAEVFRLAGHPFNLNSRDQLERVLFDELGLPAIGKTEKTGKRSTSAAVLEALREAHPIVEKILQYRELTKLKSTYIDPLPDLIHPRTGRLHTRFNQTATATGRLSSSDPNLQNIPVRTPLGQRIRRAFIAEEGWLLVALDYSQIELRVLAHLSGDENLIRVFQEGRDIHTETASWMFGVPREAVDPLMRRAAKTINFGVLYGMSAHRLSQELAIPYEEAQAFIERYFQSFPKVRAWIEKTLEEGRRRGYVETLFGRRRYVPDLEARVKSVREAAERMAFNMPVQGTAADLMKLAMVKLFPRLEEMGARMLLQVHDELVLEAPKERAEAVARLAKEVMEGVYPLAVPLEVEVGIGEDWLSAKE
REPORTED_METRIC: Kd (nM)
Please reply with the bare figure in nM and do not write the unit itself.

Give its Kd value. Item: Mutation 1-35 (antibody, V domains shown, Mutation 1 background; CDRs built) VH: QVQLQQPGAELVKPGASVRLSCQTSVDTFTTYYIYWVKQRPGEGLEWIGGVNPTSNPVFNEKFKSKATLTVDTSSSTAYMQLSSLTSVDSAVYYCTRSLIRRGYYFDYWGQGTALTVSS VL: DIQMTQTTSSLSASLGDRVTISCRASQDINNYINWYQQKPDGTIKLLIYYTSRLNSGLPSRFSGSGSGTDYSLTIANLEQEDIATYFCQQDDTLPVTFGAGTKVELKR
0.706

Tell me the measured Kd of Mutation 1-37 (antibody, V domains shown, Mutation 1 background; CDRs built) VH: QVQLQQPGAELVKPGASVRLSCQTSVETFTTYYIYWVKQRPGEGLEWIGGLNPTSNPVFNEKFKSKATLTVDTSSSTAYMQLSSLTSVDSAVYYCTRSIVRRGYYFDYWGQGTALTVSS VL: DIQMTQTTSSLSASLGDRVTISCRASQDINNYVNWYQQKPDGTIKLLIYYTSRLHSGIPSRFSGSGSGTDYSLTIANLEQEDIATYFCQQDDTIPITFGAGTKVELKR , please.
0.382

Would you mind telling me what Kd value was observed for Mutation 1-11 (antibody, V domains shown, Mutation 1 background; CDRs built) VH: QVQLQQPGAELVKPGASVRLSCQTSVNTFTTYYIYWVKQRPGEGLEWIGGLNPTSGGPVFNEKFKSKATLTVDTSSSTAYMQLSSLTSVDSAVYYCTRSIIRRGYYFDYWGQGTALTVSS VL: DIQMTQTTSSLSASLGDRVTISCRASQDINNYINWYQQKPDGTIKLLIYYTSRLQSGLPSRFSGSGSGTDYSLTIANLEQEDIATYFCQQDDTIPLTFGAGTKVELKR ?
0.613

Field request: Kd | item: Mutation 1-18 (antibody, V domains shown, Mutation 1 background; CDRs built) VH: QVQLQQPGAELVKPGASVRLSCQTSVDTFTTYYIYWVKQRPGEGLEWIGGVNPTSNPVFNEKFKSKATLTVDTSSSTAYMQLSSLTSVDSAVYYCTRSILRRGYYFDYWGQGTALTVSS VL: DIQMTQTTSSLSASLGDRVTISCRASQDIQNYVNWYQQKPDGTIKLLIYYTSRLQSGIPSRFSGSGSGTDYSLTIANLEQEDIATYFCQQDDTIPVTFGAGTKVELKR
0.677
